Provide the reported Inhibition of each item.
experiment: Inhibition of Rubella virus strain THERIEN in Vero cells after 48 hrs of high multiplicity infection by plaque assay; assay type: functional; set-up: concentration or dose not given beside the values
The response must be a number in % with no trailing unit.

Identify the reported Inhibition for the following entry. CCCCCNc1cc(CCO)nc(SC)n1
94.7

Quickly give me recorded Inhibition for C#CCNc1nc(SC)nc(CCO)c1I
97.3

Identify the reported Inhibition for the following entry. CCCCCNc1nc(SC)nc(CCO)c1Cl
66.4

Give recorded Inhibition. CSc1nc(CCO)cc(N2CCC2)n1
35.6

Return Inhibition (reported value) for this compound: CSc1nc(CCO)cc(N(C)Cc2ccccc2)n1
31.9

----------
test: Inhibition of Rubella virus strain THERIEN in Vero cells after 48 hrs of high multiplicity infection by plaque assay; format: functional; parameters: concentration or dose not given beside the values
Binary call on Inhibition with cut-off 90%: strictly below means Satisfied, and equality or higher means Not satisfied.

For this compound, is Inhibition lower than 90%? C=CCNc1nc(SC)nc(CCO)c1Cl
Satisfied

API: query returns whether the compound falls strictly under 90% in Inhibition. Query: C=CCNc1nc(SC)nc(CCO)c1Br
Satisfied

Quick check: Inhibition of CSc1nc(CCO)cc(N2CCN(C)CC2)n1 under 90%?
Satisfied

Quick check: Inhibition of CCCCCNc1nc(SC)nc(CCO)c1Br under 90%?
Satisfied

Criterion: Inhibition strictly below 90%. Is it met by CSc1nc(CCO)cc(N2CCN(c3ccc(F)cc3)CC2)n1 ?
Not satisfied

is_below(Inhibition, 90%) for CSc1nc(CCO)cc(N2CCN(c3cccc(C(F)(F)F)c3)CC2)n1 ?
Satisfied

Lab log: compare recorded Inhibition with 90%; is it strictly lower for CSc1nc(CCO)cc(N(C)C)n1 ?
Not satisfied

Quick check: Inhibition of CSc1nc(CCO)cc(N2CCC(C)CC2)n1 under 90%?
Not satisfied

Is the reported Inhibition for CSc1nc(CCO)cc(N2CCCC2)n1 strictly below 90%?
Satisfied

Does the reported Inhibition of C=CCNc1nc(SC)nc(CCO)c1I stay below 90%?
Not satisfied

# strict comparison: is reported Inhibition < 90%? input = COc1ccccc1N1CCN(c2cc(CCO)nc(SC)n2)CC1
Not satisfied

Confirm or reject: Inhibition of CSc1nc(CCO)cc(NCc2ccc(Cl)cc2Cl)n1 lies strictly below 90%
Satisfied

----------
assay: Cytotoxicity against Vero cells after 48 hrs; format: cell-based; conditions: chlorocebus sabaeus
Friendly reminder: CC50 at 48 h below 400 µM is Criterion met, at or above is Criterion not met.

Below 400 µM on CC50 at 48 h? Entry CSc1nc(CCO)cc(N2CCN(C(C)=O)CC2)n1
Criterion not met

Identify whether the compound CCCN(CCC)c1cc(CCO)nc(SC)n1 records CC50 at 48 h below 400 µM.
Criterion met

Is CC50 at 48 h strictly under 400 µM for the entry CSc1nc(CCO)cc(N2CCN(c3cccc(C(F)(F)F)c3)CC2)n1 ?
Criterion met

Below 400 µM on CC50 at 48 h? Entry CCCCCNc1cc(CCO)nc(SC)n1
Criterion met

Does the reported CC50 at 48 h of the following compound sit strictly below 400 µM? CSc1nc(CCO)cc(N2CCN(c3ccccc3)CC2)n1
Criterion met

Is it true that CC50 at 48 h reported for CSc1nc(CCO)cc(N2CCSCC2)n1 is less than 400 µM?
Criterion not met

Does the reported CC50 at 48 h of CCCCCNc1nc(SC)nc(CCO)c1Br stay below 400 µM?
Criterion met

Please state whether CC50 at 48 h is below 400 µM for CSc1nc(CCO)cc(N2CCN(c3ccc(F)cc3)CC2)n1
Criterion met

Is 400 µM strictly greater than the compound's reported CC50 at 48 h? compound: C#CCNc1nc(SC)nc(CCO)c1Cl
Criterion not met

Lab log: compare recorded CC50 at 48 h with 400 µM; is it strictly lower for CSc1nc(CCO)cc(NCc2ccc(Cl)cc2Cl)n1 ?
Criterion met

is_below(CC50 at 48 h, 400 µM) for CCCCCNc1nc(SC)nc(CCO)c1Cl ?
Criterion met

Could you please tell me whether CC50 at 48 h recorded for CSc1nc(CCO)cc(N2CCCC2)n1 is less than 400 µM?
Criterion not met

Answer whether the compound COc1ccccc1N1CCN(c2cc(CCO)nc(SC)n2)CC1 has CC50 at 48 h strictly less than 400 µM
Criterion met

Quick check: CC50 at 48 h of C=CCNc1nc(SC)nc(CCO)c1I under 400 µM?
Criterion met

Could you please tell me whether CC50 at 48 h recorded for C#CCNc1cc(CCO)nc(SC)n1 is less than 400 µM?
Criterion not met

Lab log: compare recorded CC50 at 48 h with 400 µM; is it strictly lower for CCCCCNc1nc(SC)nc(CCO)c1I ?
Criterion met

# strict comparison: is reported CC50 at 48 h < 400 µM? input = CCCCN(CCCC)c1cc(CCO)nc(SC)n1
Criterion met

Consider the compound COc1ccc(Nc2cc(CCO)nc(SC)n2)cc1 . Is its CC50 at 48 h strictly less than 400 µM?
Criterion not met

State whether 400 µM exceeds CC50 at 48 h recorded for CCCN(C)c1cc(CCO)nc(SC)n1 .
Criterion not met

Answer whether the compound C#CCNc1nc(SC)nc(CCO)c1Br has CC50 at 48 h strictly less than 400 µM
Criterion not met

API: query returns whether the compound falls strictly under 400 µM in CC50 at 48 h. Query: CSc1nc(CCO)cc(N(C)Cc2ccccc2)n1
Criterion met

Find out if reported CC50 at 48 h for CSc1nc(CCO)cc(N(C)C)n1 is less than 400 µM
Criterion not met

Strictly below 400 µM: is that where CC50 at 48 h of CSc1nc(CCO)cc(N2CCC2)n1 sits?
Criterion not met

Find out if reported CC50 at 48 h for CSc1nc(CCO)cc(N2CCSC2)n1 is less than 400 µM
Criterion not met

Could you please tell me whether CC50 at 48 h recorded for C#CCNc1nc(SC)nc(CCO)c1I is less than 400 µM?
Criterion not met

Determine whether this compound shows CC50 at 48 h lower than 400 µM (ties excluded): CSc1nc(CCO)cc(N(CCO)CCO)n1
Criterion not met

Consider CSc1nc(CCO)cc(N2CCN(C)CC2)n1 . Does its CC50 at 48 h lie strictly below 400 µM?
Criterion not met

I'd appreciate it if you could check whether C=CCNc1nc(SC)nc(CCO)c1Cl has CC50 at 48 h smaller than 400 µM.
Criterion not met
